These entries and their values trace back to patent US20180185504A1.

Molecular target: T1, hPRLR.mmh (soluble monomeric human PRLR) (human)
T1 construct: called soluble monomeric PRLR protein
T1 chain: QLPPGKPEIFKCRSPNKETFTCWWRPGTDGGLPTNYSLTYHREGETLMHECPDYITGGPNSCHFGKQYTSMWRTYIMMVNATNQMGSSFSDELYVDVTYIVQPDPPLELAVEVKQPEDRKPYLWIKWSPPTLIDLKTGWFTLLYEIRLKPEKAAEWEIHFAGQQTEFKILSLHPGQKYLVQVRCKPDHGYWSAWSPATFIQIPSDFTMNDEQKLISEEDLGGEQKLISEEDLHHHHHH
Experiment: SPR Biacore, 25 C, mAb capture
Measured Attribute: koff (s⁻¹)
Reply with just the number (in s⁻¹).

Binder	Result Units	Measurement
H1H6953N (antibody, human IgG1, V domains shown, Tested with human IgG1 Fc (H1H); also called H1M6953N) VH: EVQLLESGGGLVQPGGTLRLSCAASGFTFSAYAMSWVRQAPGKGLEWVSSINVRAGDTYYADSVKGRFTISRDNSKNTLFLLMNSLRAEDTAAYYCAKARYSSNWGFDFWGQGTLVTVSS VL: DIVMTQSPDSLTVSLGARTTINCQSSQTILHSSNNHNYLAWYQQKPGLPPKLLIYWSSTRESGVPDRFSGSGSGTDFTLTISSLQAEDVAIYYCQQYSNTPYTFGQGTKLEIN	s⁻¹	0.000212

Next binder, please.
H1H6967N (antibody, human IgG1, V domains shown, Tested with human IgG1 Fc (H1H); also called H2M6967N) VH: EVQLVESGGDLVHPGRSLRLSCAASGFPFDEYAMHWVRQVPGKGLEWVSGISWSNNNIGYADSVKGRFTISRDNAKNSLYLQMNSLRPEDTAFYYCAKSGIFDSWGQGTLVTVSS VL: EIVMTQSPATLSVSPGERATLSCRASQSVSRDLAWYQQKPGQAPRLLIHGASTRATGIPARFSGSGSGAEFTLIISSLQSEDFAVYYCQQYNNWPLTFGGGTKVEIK yielded koff of 0.000332
